Target: PCSK9/LDLR interaction (Homo sapiens)
Sequence (Q8NBP7 153-692): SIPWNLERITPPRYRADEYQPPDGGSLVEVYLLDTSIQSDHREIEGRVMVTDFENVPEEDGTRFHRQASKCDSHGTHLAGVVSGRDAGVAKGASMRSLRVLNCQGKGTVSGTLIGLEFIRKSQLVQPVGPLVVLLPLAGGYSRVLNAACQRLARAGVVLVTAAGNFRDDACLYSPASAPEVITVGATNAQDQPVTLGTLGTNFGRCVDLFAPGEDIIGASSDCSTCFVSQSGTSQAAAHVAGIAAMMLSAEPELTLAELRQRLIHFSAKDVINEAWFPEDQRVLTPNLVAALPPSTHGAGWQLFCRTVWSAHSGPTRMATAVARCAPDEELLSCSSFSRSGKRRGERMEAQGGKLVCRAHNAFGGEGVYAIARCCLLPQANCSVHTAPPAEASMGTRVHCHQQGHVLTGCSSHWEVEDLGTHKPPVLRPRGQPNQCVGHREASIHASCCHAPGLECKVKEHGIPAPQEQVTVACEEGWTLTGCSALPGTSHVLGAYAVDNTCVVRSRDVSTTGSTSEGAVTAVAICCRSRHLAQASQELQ
Sequence (Q8NBP7 31-152 partner limits assumed): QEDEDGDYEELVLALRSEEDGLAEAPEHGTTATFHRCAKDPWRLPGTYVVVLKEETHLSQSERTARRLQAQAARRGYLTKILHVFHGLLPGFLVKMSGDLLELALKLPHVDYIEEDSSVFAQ
Test: LDLR upregulation in HepG2 cells
Format: cell-based
Parameters: the human full-length PCSK9 was cloned; expressed in transfected cells
Details: endogenously expressed LDLR, transfected with PCSK9, compounds 1-50 uM, 43 hours, read-out: EC50 of up-regulation of LDLR
MEASURED PROPERTY: EC50 (nM)

A. CC(C)(C(=O)NCc1ccco1)n1cc(NC(=O)c2cccnc2)cn1 [SBC-110,424]
B. Cc1cc(C(=O)C2=C(O)C(=O)N(CCCN3CCOCC3)C2c2ccncc2)ccc1OCc1ccccc1 (centres unmarked) [SBC-115,076]
Exercise: Between A and B , which one has the lower reported EC50 value? # respond with the chosen item's label
Key: B
(B: 430 nM, A: 2000 nM)
